system_name: T1, recombinant human IL-17A-mFc protein (human, UniProt Q16552 24-155, Biotinylated before the blocking assays of Examples 9 and 12 (sites not given); disulfide-linked dimer through IL-17A and the Fc.)
T1 construct: also called recombinant fusion protein IL-17A-mFc
T1 sequence: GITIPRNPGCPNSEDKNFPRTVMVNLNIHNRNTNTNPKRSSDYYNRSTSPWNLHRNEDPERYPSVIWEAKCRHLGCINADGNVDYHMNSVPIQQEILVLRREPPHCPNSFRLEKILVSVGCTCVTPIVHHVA
assay_name: competitive FACS: blocks binding of biotinylated human IL-17A-mFc to IL-17RA on 293F cells
I'd appreciate it if you could supply IC50 values for the items below.
Field: numeric (µg/mL). Do not append units.

Problem: Can you share its IC50? I mean this binder: humanized antibody hu31 (antibody, human IgG4 S228P, kappa, V domains shown, Humanized from ch1) VH: QVQLVQSGAEVKKPGASVKVSCKASGYIFTNYGMNWMRQAPGQGLEWMGWINDHTGEPTYADKFQGRVTFTLDTSISTAYMELSRLRSDDTAVYYCANYGFGYFDYWGQGTLVTVSS VL: DVVMTQSPLSLPVTLGQPASISCRSSQSLVHSNGNSYLHWYLQKPGQSPQLLIYKVSNRFSGVPDRFSGSGSGTDFTLKISRVEAEDVGVYYCSQSTHVPYTFGQGTKLEIKR
Solution: 0.868

Problem: Ok, now humanized antibody hu60 (antibody, human IgG4 S228P, kappa, V domains shown) VH: QVQLQESGPGLVKPSETLSLTCTVTGYSISSDYAWSWIRQPPGKGLEWIGFISYSGPTSYNPSLKSRVTISRDTSKNQFSLKLSSVTAADTAVYYCARGGDGDSFDYWGQGTLVTVSS VL: DVVMTQSPLSLPVTLGQPASISCRSSQSIVHSNGNTYLDWYLQKPGQSPKLLIYKVSNRFSGVPDRFSGSGSGTSFTLKISRVEAEDLGVYYCFQGSHFPTFGQGTKLEIKR
Solution: 0.483

Problem: Ok, now humanized antibody hu43 (antibody, human IgG4 S228P, kappa, V domains shown) VH: QIQLVQSGAEVKKPGASVKISCKASGYIFTNYGMNWMRQAPGQGLEWMGWINDHTGEPTYADKFQGRVTFTLDTSASTAYMELSRLRSDDTAVYYCANYGFGYFDYWGQGTLVTVSS VL: DVVMTQSPLSLPVTLGQPASISCRSSQSLVHSNGNSYLHWYLQKPGQSPQLLIYKVSNRFSGVPDRFSGSGSGTDFTLKISRVEAEDVGVYYCSQSTHVPYTFGQGTKLEIKR
Solution: 0.781

Problem: Ok, now humanized antibody hu59 (antibody, human IgG4 S228P, kappa, V domains shown) VH: QVQLQESGPGLVKPSETLSLTCTVTGYSISSDYAWSWIRQPPGKGLEWIGFISYSGPTSYNPSLKSRVTISRDTSKNQFSLKLSSVTAADTAVYYCARGGDGDSFDYWGQGTLVTVSS VL: DVVMTQSPLSLPVTLGQPASISCRSSQSIVHSNGNTYLDWYLQKPGKSPKLLIYKVSNRFSGVPDRFSGSGSGTDFTLKISRVEAEDLGVYYCFQGSHFPTFGQGTKLEIKR
Solution: 0.467
